Tested on: E. coli (ATCC 25922)
Protocol notes: MIC and MBC measurement with E. coli (ATCC 25922)
Assay type: cell-based, Escherichia coli
Measurement context: Table 4; E. coli (ATCC 25922)
Exercise: for every item that follows, state its recorded MIC.
State the answer as a number, implicitly in µg/mL.

I'd like to know its MIC. The molecule in question is C[C@H](CCCN(C)Cc1ccccc1)[C@H]1CC[C@H]2[C@@H]3[C@H](OCCCNC(=N)N)C[C@@H]4C[C@H](OCCCNC(=N)N)CC[C@]4(C)[C@H]3C[C@H](OCCCNC(=N)N)[C@]12C [Compound 5]
2

Item: C[C@H](CCCN(C)Cc1ccccc1)[C@H]1CC[C@H]2[C@@H]3[C@H](OCCN)C[C@@H]4C[C@H](OCCN)CC[C@]4(C)[C@H]3C[C@H](OCCN)[C@]12C [Compound 1]
25

Item: C[C@H](CCCN(C)Cc1ccccc1)[C@H]1CC[C@H]2[C@@H]3[C@H](OCCCN)C[C@@H]4C[C@H](OCCCN)CC[C@]4(C)[C@H]3C[C@H](OCCCN)[C@]12C [Compound 2]
10

Item: C[C@H](CCCN(C)Cc1ccccc1)[C@H]1CC[C@H]2[C@@H]3[C@H](OCCNC(=N)N)C[C@@H]4C[C@H](OCCNC(=N)N)CC[C@]4(C)[C@H]3C[C@H](OCCNC(=N)N)[C@]12C [Compound 4]
6

###

Tested on: E. coli (ATCC 10798)
Protocol notes: Sensitization to novobiocin (concentration lowering the MIC of novobiocin), E. coli (ATCC 10798)
Assay type: cell-based, Escherichia coli
Measurement context: Table 9; Escherichia coli (ATCC 10798)
Exercise: for every item that follows, state its recorded (d) Concentration required to lower the MIC of novobiocin from >500 to 1 μg/mL.
State the answer as a number, implicitly in mg/L.

GET /values?readout=(d) Concentration required to lower the MIC of novobiocin from >500 to 1 μg/mL&system=E. coli (ATCC 10798)&item= COCCC[C@@H](C)[C@H]1CC[C@H]2[C@@H]3[C@H](OCCCN)C[C@@H]4C[C@H](OCCCN)CC[C@]4(C)[C@H]3C[C@H](OCCCN)[C@]12C
2.0

Item: CCCOCCC[C@@H](C)[C@H]1CC[C@H]2[C@@H]3[C@H](OCCCN)C[C@@H]4C[C@H](OCCCN)CC[C@]4(C)[C@H]3C[C@H](OCCCN)[C@]12C
0.8

Item: C[C@]12CC[C@@H](OCCCN)C[C@H]1C[C@@H](OCCCN)[C@@H]1[C@@H]2C[C@H](OCCCN)[C@]2(C)[C@@H](O)CC[C@@H]12
50

Item: CCCCCOCCC[C@@H](C)[C@H]1CC[C@H]2[C@@H]3[C@H](OCCCN)C[C@@H]4C[C@H](OCCCN)CC[C@]4(C)[C@H]3C[C@H](OCCCN)[C@]12C
1.0

Item: CC(O)[C@H]1CC[C@H]2[C@@H]3[C@H](OCCCN)C[C@@H]4C[C@H](OCCCN)CC[C@]4(C)[C@H]3C[C@H](OCCCN)[C@]12C (stereo partly drawn)
40

Item: C[C@H](CCCO)[C@H]1CC[C@H]2[C@@H]3[C@H](OCCCN)C[C@@H]4C[C@H](OCCCN)CC[C@]4(C)[C@H]3C[C@H](OCCCN)[C@]12C
4.0

###

Tested on: Pseudomonas aeruginosa (ATCC 27853)
Protocol notes: MIC and MBC measurement with Pseudomonas aeruginosa (ATCC 27853)
Assay type: cell-based
Measurement context: Table 6; P. aureginosa (ATCC 27853)
Exercise: for every item that follows, state its recorded MBC.
State the answer as a number, implicitly in µg/mL.

GET /values?readout=MBC&system=Pseudomonas aeruginosa (ATCC 27853)&item= C[C@H](CCCN(C)Cc1ccccc1)[C@H]1CC[C@H]2[C@@H]3[C@H](OCCCN)C[C@@H]4C[C@H](OCCCN)CC[C@]4(C)[C@H]3C[C@H](OCCCN)[C@]12C
40

Item: C[C@H](CCCN(C)Cc1ccccc1)[C@H]1CC[C@H]2[C@@H]3[C@H](OCCNC(=N)N)C[C@@H]4C[C@H](OCCNC(=N)N)CC[C@]4(C)[C@H]3C[C@H](OCCNC(=N)N)[C@]12C
40

Item: C[C@H](CCCN(C)Cc1ccccc1)[C@H]1CC[C@H]2[C@@H]3[C@H](OCCCNC(=N)N)C[C@@H]4C[C@H](OCCCNC(=N)N)CC[C@]4(C)[C@H]3C[C@H](OCCCNC(=N)N)[C@]12C
15

###

Tested on: Staphylococcus aureus ATCC 25923
Protocol notes: MIC and MBC measurement with Staphylococcus aureus ATCC 25923
Type: cell-based
Measurement context: Table 10; Staphylococcus aureus ATCC 25923
Cut-off 1 µg/mL on MIC: below means 1 (yes), at or above means 0 (no).

Is it true that MIC reported for C[C@]12CC[C@@H](OCCCN)C[C@H]1C[C@@H](OCCCN)[C@@H]1[C@@H]2C[C@H](OCCCN)[C@]2(C)[C@@H](O)CC[C@@H]12 [Compound 106] is less than 1 µg/mL?
0 (no)

Item: C[C@H](CCCN(C)Cc1ccccc1)[C@H]1CC[C@H]2[C@@H]3[C@H](OCCCNC(=N)N)C[C@@H]4C[C@H](OCCCNC(=N)N)CC[C@]4(C)[C@H]3C[C@H](OCCCNC(=N)N)[C@]12C [Compound 5]
1 (yes)

Item: CCCCCCCCNCCC[C@@H](C)[C@H]1CC[C@H]2[C@@H]3[C@H](OCCCN)C[C@@H]4C[C@H](OCCCN)CC[C@]4(C)[C@H]3C[C@H](OCCCN)[C@]12C [Compound 133]
1 (yes)

Item: C[C@H](CCCN(C)Cc1ccccc1)[C@H]1CC[C@H]2[C@@H]3[C@H](OCCN)C[C@@H]4C[C@H](OCCN)CC[C@]4(C)[C@H]3C[C@H](OCCN)[C@]12C [Compound 1]
0 (no)

Item: CCCCCCCCNCCC[C@@H](C)[C@H]1CC[C@H]2[C@@H]3[C@H](OCCCNC(=N)N)C[C@@H]4C[C@H](OCCCNC(=N)N)CC[C@]4(C)[C@H]3C[C@H](OCCCNC(=N)N)[C@]12C [Compound 134]
1 (yes)

Item: CCCOCCC[C@@H](C)[C@H]1CC[C@H]2[C@@H]3[C@H](OCCCN)C[C@@H]4C[C@H](OCCCN)CC[C@]4(C)[C@H]3C[C@H](OCCCN)[C@]12C [Compound 112]
1 (yes)

###

Test system: Candida albicans ATCC 90028
Protocol notes: MIC and MBC measurement with Candida albicans ATCC 90028
Format: cell-based
Measurement context: Table 10
Exercise: for every item that follows, state its recorded MBC.
State the answer as a number, implicitly in µg/mL.

GET /values?readout=MBC&system=Candida albicans ATCC 90028&item= CCCCCCCCNCCC[C@@H](C)[C@H]1CC[C@H]2[C@@H]3[C@H](OCCCN)C[C@@H]4C[C@H](OCCCN)CC[C@]4(C)[C@H]3C[C@H](OCCCN)[C@]12C
45

Item: C[C@]12CC[C@@H](OCCCN)C[C@H]1C[C@@H](OCCCN)[C@@H]1[C@@H]2C[C@H](OCCCN)[C@]2(C)[C@@H](O)CC[C@@H]12
92

Item: CCCCCCCCNCCC[C@@H](C)[C@H]1CC[C@H]2[C@@H]3[C@H](OCCCNC(=N)N)C[C@@H]4C[C@H](OCCCNC(=N)N)CC[C@]4(C)[C@H]3C[C@H](OCCCNC(=N)N)[C@]12C
76

Item: C[C@H](CCCN(C)Cc1ccccc1)[C@H]1CC[C@H]2[C@@H]3[C@H](OCCCNC(=N)N)C[C@@H]4C[C@H](OCCCNC(=N)N)CC[C@]4(C)[C@H]3C[C@H](OCCCNC(=N)N)[C@]12C
50

Item: CCCOCCC[C@@H](C)[C@H]1CC[C@H]2[C@@H]3[C@H](OCCCN)C[C@@H]4C[C@H](OCCCN)CC[C@]4(C)[C@H]3C[C@H](OCCCN)[C@]12C
45

Item: C[C@H](CCCN(C)Cc1ccccc1)[C@H]1CC[C@H]2[C@@H]3[C@H](OCCCN)C[C@@H]4C[C@H](OCCCN)CC[C@]4(C)[C@H]3C[C@H](OCCCN)[C@]12C
42

###

Exercise: for every item that follows, state its recorded MIC.
Tested on: Salmonella typhimurium ATCC 14028
Protocol notes: MIC and MBC measurement with Salmonella typhimurium ATCC 14028
Type: cell-based
Measurement context: Table 10
Field: value (include unit after the number)

I'd like to know its MIC. The compound in question is C[C@H](CCCN(C)Cc1ccccc1)[C@H]1CC[C@H]2[C@@H]3[C@H](OCCN)C[C@@H]4C[C@H](OCCN)CC[C@]4(C)[C@H]3C[C@H](OCCN)[C@]12C
21 µg/mL

Item: C[C@H](CCCN(C)Cc1ccccc1)[C@H]1CC[C@H]2[C@@H]3[C@H](OCCCNC(=N)N)C[C@@H]4C[C@H](OCCCNC(=N)N)CC[C@]4(C)[C@H]3C[C@H](OCCCNC(=N)N)[C@]12C
2.2 µg/mL

Item: CCCCCCCCNCCC[C@@H](C)[C@H]1CC[C@H]2[C@@H]3[C@H](OCCCNC(=N)N)C[C@@H]4C[C@H](OCCCNC(=N)N)CC[C@]4(C)[C@H]3C[C@H](OCCCNC(=N)N)[C@]12C
0.81 µg/mL

Item: CCCCCCCCNCCC[C@@H](C)[C@H]1CC[C@H]2[C@@H]3[C@H](OCCCN)C[C@@H]4C[C@H](OCCCN)CC[C@]4(C)[C@H]3C[C@H](OCCCN)[C@]12C
2.6 µg/mL
